The origin of these recorded values is patent US9809640B2.

Reported EC50 at 72 h values follow for various substances
assay-procedure: Cytotoxicity on normal B-cells from volunteers
Type: cell-based, human
assay-setup: human, normal B-cells from volunteers
Starred links: 1 amine or outer side, 2 acyl side, 3 side chain; linkers in the order of their positions; H or OH if unused. Positions of bridges follow the written chain, without caps; N, C: chain ends. Chains are numbered I, II in the order given. BMOE = O=C1CC([*:1])C(=O)N1CCN1C(=O)CC([*:2])C1=O

substance	measured
I: Ac-RQIKIWFQNRRMKWKKCLRVRLASHLRKLRKRLL-NH2 / II: Ac-RQIKIWFQNRRMKWKKCLRVRLASHLRKLRKRLL-NH2 (linker I:17-II:17 via BMOE) [COG449, COG112-C-BMOE-C-COG112]	> 10 µM

Input I: Ac-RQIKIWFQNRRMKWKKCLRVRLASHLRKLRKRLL-NH2 / II: Ac-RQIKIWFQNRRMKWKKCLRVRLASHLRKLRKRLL-NH2 (disulfide I:17-II:17) [COG445, COG112-C-C-COG112] . Output EC50 at 72 h: > 10 µM
